Test system: HL-60
Test: Antiproliferative activity against human HL60 cells at 10^-8 mol/L after 72 hrs by SRB assay
Format: functional
Details: HL-60, 72 h
MEASUREMENT_KIND: inhibition at 0.01 µM
Give me the value, and tack the unit on after it.

Sample answers from the record:
COMPOUND: COc1cc2c3c(c4cc5c(cc4c2cc1OC)OCCO5)CN1CCCC1C3 (racemic)
inhibition at 0.01 µM: 16%

COMPOUND: c1c2c(cc3c1c1c(c4cc5c(cc43)OCCO5)CN3CCCC3C1)OCCO2 (racemic)
inhibition at 0.01 µM: 0%

COMPOUND: COc1cc2c3c(c4cc(OC)c(OC)cc4c2cc1OC)[C@@H](O)[C@H]1CCCN1C3
inhibition at 0.01 µM: 12.7%

*Q* # query: inhibition at 0.01 µM of entry COc1cc2c3c(c4cc5c(cc4c2cc1OC)OCCO5)CC1CCCN1C3 (racemic)
*A* 3.8%

*Q* # query: inhibition at 0.01 µM of entry COc1cc2c3c(c4cc(OC)c(OC)cc4c2cc1OC)[C@H](O)[C@H]1CCCN1C3
*A* 12.1%

*Q* # query: inhibition at 0.01 µM of entry COc1cc2c3c(c4cc5c(cc4c2cc1OC)OCO5)CN1CCCC1C3 (racemic)
*A* 14.8%

*Q* # query: inhibition at 0.01 µM of entry c1c2c(cc3c1c1c(c4cc5c(cc43)OCO5)CN3CCCC3C1)OCO2 (racemic)
*A* 10.4%

*Q* # query: inhibition at 0.01 µM of entry COc1cc2c3c(c4cc(OC)c(OC)cc4c2cc1OC)[C@H](O)[C@@H]1CCCN1C3
*A* 34.5%

*Q* # query: inhibition at 0.01 µM of entry COc1cc2c3c(c4cc(OC)c(OC)cc4c2cc1OC)CN1CCCC1C3 (racemic) [(+/-)-TYLOPHORINE]
*A* 14.9%

* * *

System: HL-60
Assay: Antiproliferative activity against human HL60 cells at 10^-8 mol/L after 72 hrs by SRB assay
Assay type: functional
Conditions: HL-60, 72 h
Form field: inhibition at 0.01 µM (one value per entry).
# output: bare number, implied unit %

Sample answers from the record:
MOLECULE: COc1cc2c3c(c4ccc(O)cc4c2cc1OC)CN1CCC[C@@H]1C3
MEASUREMENT_KIND: inhibition at 0.01 µM
VAL: 86.5
--
MOLECULE: COc1cc2c3c(c4ccc(O)cc4c2cc1OC)CN1CCC[C@H]1C3
MEASUREMENT_KIND: inhibition at 0.01 µM
VAL: 37.4
--
MOLECULE: COc1cc2c3c(c4cc5c(cc4c2cc1OC)OCO5)CC1CCCN1C3 (racemic)
MEASUREMENT_KIND: inhibition at 0.01 µM
VAL: 11.7

Now take the following molecule into account.
*Q* # query: inhibition at 0.01 µM of entry COc1cc2c3c(c4cc(OC)c(OC)cc4c2cc1OC)[C@@H](O)[C@@H]1CCCN1C3
*A* 3.9
